All figures here come from paper PMC2833169.

- Tested on: P. falciparum strain TM91C235
- testSummary: labeled hypoxanthine susceptibility assay, P. falciparum TM91C235
- Format: cell-based, Plasmodium falciparum
- cond: Plasmodium falciparum, read-out: IC90 Pf C235
Listed here: items and their measured IC90.

Worked examples follow.
molecule="CNCC(O)c1cc(C(F)(F)F)nc2c(C(F)(F)F)cccc12 (stereo not drawn)" measuredproperty=IC90 result="0.058 µg/mL"
molecule="CCC(C)CNCC(O)c1cc(C(F)(F)F)nc2c(C(F)(F)F)cccc12 (stereo not drawn)" measuredproperty=IC90 result="0.012 µg/mL"
molecule="CC1C(NCC(O)c2cc(C(F)(F)F)nc3c(C(F)(F)F)cccc23)CC2CC1C2(C)C (stereo not drawn)" measuredproperty=IC90 result="0.019 µg/mL"

Please find the next molecule below.
q: Entry CC(C)NCC(O)c1cc(C(F)(F)F)nc2c(C(F)(F)F)cccc12 (stereo not drawn) has what IC90?
a: 0.023 µg/mL

----------
- testSummary: metabolic stability in mouse liver microsomes
- Type: in vitro ADME
- cond: pH 7.4; mouse liver microsomes, 1 μM; read-out: Half-life in mouse micro
// values below are reported half-life at 1 μM

compound="CNCC(O)c1cc(C(F)(F)F)nc2c(C(F)(F)F)cccc12 (stereo not drawn)" measuredproperty="half-life at 1 μM" result="> 1 h"

q: Consider the compound CC(C)NCC(O)c1cc(C(F)(F)F)nc2c(C(F)(F)F)cccc12 (stereo not drawn) and give its measured half-life at 1 μM.
a: > 1 h

q: Any idea what its half-life at 1 μM is? The compound is OC(CNCCNCc1ccccc1)c1cc(C(F)(F)F)nc2c(C(F)(F)F)cccc12 (stereo not drawn)
a: > 1 h

----------
- System: P. falciparum strain TM90C2A
- testSummary: labeled hypoxanthine susceptibility assay, P. falciparum TM90C2A
- Type: cell-based, Plasmodium falciparum
- cond: Plasmodium falciparum, TM90C2A; read-out: IC90 PfC2A
- Procedure: The in vitro activities of quinoline methanols against P. falciparum strains W2, D6, TM91C235, and TM90C2A were evaluated using the traditional labeled hypoxanthine assay of Desjardins et al as modified by Milhous et al. These four P. falciparum strains were selected since they have various levels of resistance to conventional anti-malarials.
// boundary case: IC90 equal to 80 nM maps to 0 (no); strictly smaller maps to 1 (yes)

q: Bench note: check whether CCC(C)CNCC(O)c1cc(C(F)(F)F)nc2c(C(F)(F)F)cccc12 (centres unmarked) shows IC90 below 80 nM
a: 1 (yes)

q: Hi there! Is IC90 for CC(C)N(CC(O)c1cc(C(F)(F)F)nc2c(C(F)(F)F)cccc12)C(C)C (racemic) below 80 nM, do you know?
a: 1 (yes)

q: Say whether its IC90 is strictly beneath 80 nM. Entry: OC(CNCCc1ccccc1)c1cc(C(F)(F)F)nc2c(C(F)(F)F)cccc12 (racemic)
a: 0 (no)

q: Given the entry OC(CNCCC1=CCCCC1)c1cc(C(F)(F)F)nc2c(C(F)(F)F)cccc12 (racemic) , would its reported IC90 be below 80 nM?
a: 0 (no)

q: Find out if reported IC90 for OC(CNC1CCCCC1)c1cc(C(F)(F)F)nc2c(C(F)(F)F)cccc12 (racemic) is less than 80 nM
a: 1 (yes)

----------
- System: P. falciparum strain TM91C235
- testSummary: labeled hypoxanthine susceptibility assay, P. falciparum TM91C235
- Assay type: cell-based, Plasmodium falciparum
- cond: Plasmodium falciparum, read-out: PF C235 IC90
measuredProperty: IC90 (µg/mL)
Write the value in µg/mL as a bare number.

A selection of reference data follows.
compound="OC(CNCCC1=CCCCC1)c1cc(C(F)(F)F)nc2c(C(F)(F)F)cccc12 (racemic)" numericreadout=0.0392
compound="CSCCCNCC(O)c1cc(C(F)(F)F)nc2c(C(F)(F)F)cccc12 (stereo not drawn)" numericreadout=0.0393

q: Bench note: what IC90 did OC(CNCCNCc1ccccc1)c1cc(C(F)(F)F)nc2c(C(F)(F)F)cccc12 (stereo not drawn) show?
a: 0.0401

----------
- Tested on: P. falciparum strain TM91C235
- testSummary: labeled hypoxanthine susceptibility assay, P. falciparum TM91C235
- Type: cell-based, Plasmodium falciparum
- cond: Plasmodium falciparum, read-out: IC90 Pf C235
- Procedure: The in vitro activities of quinoline methanols against P. falciparum strains W2, D6, TM91C235, and TM90C2A were evaluated using the traditional labeled hypoxanthine assay of Desjardins et al as modified by Milhous et al. These four P. falciparum strains were selected since they have various levels of resistance to conventional anti-malarials.
measuredProperty: IC90
Please state the number and follow it with the unit.

compound="OC(CNCC12CCC(C1)NC2)c1cc(C(F)(F)F)nc2c(C(F)(F)F)cccc12 (centres unmarked)" measuredproperty=IC90 result="0.26 µg/mL"
compound="CC(C)CC(C)NCC(O)c1cc(C(F)(F)F)nc2c(C(F)(F)F)cccc12 (centres unmarked)" measuredproperty=IC90 result="0.015 µg/mL"
compound="OC(c1cc(C(F)(F)F)nc2c(C(F)(F)F)cccc12)C1CCCCN1 (centres unmarked) [Mefloquine, mefloquine, reference compound]" measuredproperty=IC90 result="0.052 µg/mL"
compound="OC(CNC1CCC1)c1cc(C(F)(F)F)nc2c(C(F)(F)F)cccc12 (centres unmarked)" measuredproperty=IC90 result="0.024 µg/mL"
compound="CCCCNCCNCC(O)c1cc(C(F)(F)F)nc2c(C(F)(F)F)cccc12 (centres unmarked)" measuredproperty=IC90 result="0.283 µg/mL"

q: Reported IC90 for CCC(CC)CNCC(O)c1cc(C(F)(F)F)nc2c(C(F)(F)F)cccc12 (centres unmarked) : what is it?
a: 0.011 µg/mL

q: # get_value(readout='IC90', item= C=CCNCC(O)c1cc(C(F)(F)F)nc2c(C(F)(F)F)cccc12 (centres unmarked) )
a: 0.019 µg/mL

q: Fill blank: measured IC90 of the compound OC(CNCC1CCCN1)c1cc(C(F)(F)F)nc2c(C(F)(F)F)cccc12 (centres unmarked) is ____.
a: 0.1 µg/mL
